Test system: MS2 coat protein
Assay: apparent KD of MS2 coat protein; designed switch direction (-1 OFF switch, 1 ON switch): -1; higher = weaker reporter binding
Details: Eterna round: R95; input ligand: none

query_sequence | result_unit | apparent KD of MS2 coat protein
AGAUGUAGAUACCGAUCCUACAUGAGGAUCACCCAUGUAGCUAGACGUGCGGGCGGCGCUCGUCGGACUACCAGUAG [salish99_TOv1_r3_095] (puzzle: Sensor v3, turn-off variant 1) | nM | 232
AAAUACAAGCAAAGAUCCUACAUGAGGAUCACCCAUGUGCUCGUCUUGUAAAGUACUAUCACGAAAGUGAUAGUACA [Sensor 3, v1 - 16] (puzzle: Sensor v3, turn-off variant 1) | nM | 70.2
CGGAGCAGAGGGAGAUCCAACAUGAGGAUCACCCAUGUCUCACAAGCUUUUUGCUCGUCUUAUUGUACCUUGGUGCU [JL ViennaUCT Edcesobi mod 7] (puzzle: Sensor v3, turn-off variant 1) | nM | 49.1
GAGUAGUAAGGAUAUAGUAGGAGGGAGAAGUGAGGAGAGAACUAGAAGGUACAUGAGGAUCACCCAUGUUGAGA [JR_Exclu4_Sub084] (puzzle: Exclusion 4) | nM | 19.5
GGUUGGCGAGGAUAUACAUGAGGAUCACCCAUGUGAGAGAAAAAACUGAGGAAGAAAAGUAGAAGGCGCUGACG [salish99_ex3_r3_026] (puzzle: Exclusion 3) | nM | 35.5

* * *

System: MS2 coat protein
Assay: apparent KD of MS2 coat protein; designed switch direction (-1 OFF switch, 1 ON switch): 1; higher = weaker reporter binding
Conditions: Eterna round: R95; input ligand: FMN 200 uM
Use apparent KD of MS2 coat protein to assign classes; range list: interval 1: < 30 nM; interval 2: ≥ 30 nM and < 90 nM; interval 3: ≥ 90 nM

query_sequence | cat
CGUCCGGCCUGAGCUGGACGGAAGCAUGUACAUGAGGAUCACCCAUGUUCAUGUGCAGGCUUUUUGCUCGUCUUGUG [JL-shm-2.08 JL mod] (puzzle: Sensor for hsa-mir-208a) | interval 3
AACAAUCUAUCUGAGGAUAUCUUGAAAUAAACAUGAGGAUCACCCAUGUGCAGGAAAACUGCAUAUGAGAAGGCAGAUAGAUUGA [salish99_ss2_r3_028] (puzzle: Same State 2) | interval 1
AGAAGACAUGAGGAUCACCCAUGUAUGAAAAGUACAGGAUAUCAUGAGCUAAGGUGCGCAUGAGAAGGGUGAAAAU [Aatle] (puzzle: Same State 1) | interval 3
AGUCCAGCAUAAGCUGGACAAAAGCAUGUACAUGAGGAUCACCCAUGUCAUGUACAAGCUUUUUGCUCGUCUUAAUA [Mat - hsa-mir-208a - Mod of JL - D36] (puzzle: Sensor for hsa-mir-208a) | interval 3
CAAACUUAGUAGGGUAGGUACCCAGGAUGACAUGAGGAUCACCCAUGUAAGAGCUUUUUGCUCGUCAUUAACAGUUG [JR_SHM208a_Sub018] (puzzle: Sensor for hsa-mir-208a) | interval 2
GUGCAACCGUGUGAGGAUAUCGGUGAACAAACAUGAGGAUCACCCAUGUCCGAAGCUCGGUUCUCCGAGAAGGCGCACAGUUGCA [Same State 2 - Mod of Erisin v.3] (puzzle: Same State 2) | interval 2
UUAGCACAUGAGGAUCACCCAUGUACUAUACUCAUAGGAUAUACAAAGUCUUAAGACGUGGUAGAAGGGUGAGGAA [Zaateddi] (puzzle: Same State 1) | interval 3
GUAAAACAUGAGGAUCACCCAUGUAAUAAUAUGGGAGGAUAUCAGAUUUAAUUUAAUUUAUGAGAAGGCCUAAAUG [Mat - Same State 1 - Mod of Eli - D59] (puzzle: Same State 1) | interval 2
GUAGAAGAACUAGAGGAUAUCCGAGUGGUAACAUGAGGAUCACCCAUGUGAUGAAAGGAACAUGAGGAGAAGGCUAGAAUGAAUG [Mat - Same State 2 - Mod of JL - D83] (puzzle: Same State 2) | interval 1
GUAUCUACAGGUUUCUUUGCUCGUCUGAUACAUGAGGAUCACCCAUGUUAUAGCCCUGUGCUUGCGCAGGGCUGAGG [Sensor for hsa-mir-208a ( MOD of Tearor v.3 )] (puzzle: Sensor for hsa-mir-208a) | interval 2
CAAGUACAUGAGGAUCACCCAUGUAGAAGAGAUGCAGGAUAUGUGGGAAAAGGGAGUGUAACAGAAGGGCAAGGAG [JR_SS!_Sub018] (puzzle: Same State 1) | interval 2
ACGUGGAUAUCACAGGAUAUACUCACAACUACAUGAGGAUCACCCAUGUAGCGGUAUUCCGGUGCGUAGAAGGGUGAUGGACCAC [Same State 2 - Mod of Artece v.3] (puzzle: Same State 2) | interval 1
UACAAUCUAUCUGAGGAUAUCAUGAAGAAAACAUGAGGAUCACCCAUGUGCAGGAUAACUGCAAAUGAGAAGGCAGAUAGAUUGU [Mat - Same State 2 - Mod - D5] (puzzle: Same State 2) | interval 1
ACAAGCUUUUUAGGAGAGAAAGGUGGGAUACAUGAGGAUCACCCAUGUAUUGUUGUUAAUAGUGGACCUCGUCUUAU [JR_SHM208A_Sub083] (puzzle: Sensor for hsa-mir-208a) | interval 1
